- System: TE-441-T
- Test details: cells
- Format: functional, cell-based, Homo sapiens
- Assay conditions: Homo sapiens, TE-441-T
- Description: SANGER: Inhibition of human TE-441-T cell growth in a cell viability assay.
Reported metric: IC50

>  <Smiles>
C[C@@H](Oc1cc(-c2cnn(C3CCNCC3)c2)cnc1N)c1c(Cl)ccc(F)c1Cl

>  <Result>
> 2000 nM

$$$$
>  <Smiles>
COc1cc(N2CCC(N3CCN(C)CC3)CC2)ccc1Nc1ncc(Cl)c(Nc2ccccc2S(=O)(=O)C(C)C)n1

>  <Result>
> 2000 nM

$$$$

Can you give me IC50 for all of these, one by one?
1. COc1ccc(-c2cc3nccn3c(Nc3ncccc3C(N)=O)n2)cc1OC
2. NC(=O)c1cccc(-c2cc(Nc3ccc(OC(F)(F)F)cc3)ncn2)c1
3. O=S(=O)(O)c1ccc2cc(/N=N/c3cc(S(=O)(=O)O)c4cccnc4c3O)ccc2c1
4. Cc1ccc(C(=O)Nc2ccc(CN3CCN(C)CC3)c(C(F)(F)F)c2)cc1C#Cc1cnc2cccnn12
5. Nc1ccccc1NC(=O)c1ccc(CNC(=O)OCc2cccnc2)cc1

(A)
1. 3960 nM
2. > 1280 nM
3. > 16000 nM
4. > 512 nM
5. > 5000 nM
